Test system: NCI-H1299
Test: Proliferation assay: cell line panel, NCI-H1299
Assay type: cell-based
Details: Homo sapiens, 96 h, lung cancer, non-small cell, 4 days, read-out: Result Category, IC50 (mean)
pIC50: −log10 of the molar value.
Endpoint Name: pIC50

INSERT INTO measurements (molecule, observed_result) VALUES
  ('FC(F)(F)Oc1ccc(-c2cnc(CNc3nc(N4CCOCC4)nn4c(C(F)(F)F)cnc34)[nH]2)cc1 [Example 8]', '≤ 7.00'),
  ('FC(F)(F)c1ccc(-c2cnc(CNc3nc(N4CCOCC4)nn4c(C(F)(F)F)cnc34)[nH]2)cc1 [Example 7]', '≤ 7.00');

---

pIC50 values for the compounds below.
Tested on: MDA-MB-231
Assay: Proliferation assay: cell line panel, MDA-MB-231
Assay type: cell-based
Conditions: Homo sapiens, 96 h, breast cancer, triple-negative, 4 days, read-out: Result Category, IC50 (mean)
Text: Human tumour cells were originally obtained from the American Type Culture Collection (ATCC), from Cell Line Services GmbH (CLS), from the Deutsche Sammlung von Mikroorganismen und Zellkulturen (DSMZ, German Collection of Microorganisms and Cell Cultures), from the Japanese Cancer Research Resources Bank (JCRB), from Public Health England, from the European Collection of Authenticated Cell Cultures (ECACC), from Asterand Biosciences, or from the National Cancer Institute (NCI). […]
pIC50: −log10 of the molar value.
Endpoint Name: pIC50

INSERT INTO assay_data (record_smiles, endpoint_name, observed_result) VALUES
  ('FC(F)(F)Oc1ccc(-c2cnc(CNc3nc(N4CCOCC4)nn4c(C(F)(F)F)cnc34)[nH]2)cc1', 'pIC50', '≤ 7.00'),
  ('FC(F)(F)c1ccc(-c2cnc(CNc3nc(N4CCOCC4)nn4c(C(F)(F)F)cnc34)[nH]2)cc1', 'pIC50', '7.00 to 7.52');

---

Molecular target: CDK2/CyclinE (Homo sapiens (Human))
Assay: CDK2/CycE kinase assay (TR-FRET)
Conditions: 2 mM ATP (high ATP); median; read-out: CDK2/CyclinE, 2 mM ATP (high ATP), IC50 - [mol/l] (median)
pIC50: −log10 of the molar value.
Endpoint Name: pIC50

INSERT INTO assay_data (molecule, test_target, endpoint_name, sign, observed_result) VALUES
  ('Cc1ccc(-c2nnc(CNc3nc(N4CCOCC4)nn4c(C(F)(F)F)cnc34)[nH]2)cn1 [Example 23]', 'CDK2/CyclinE (Homo sapiens (Human))', 'pIC50', '=', 5.54),
  ('FC(F)(F)Oc1ccc(-c2nnc(CNc3nc(N4CCOCC4)nn4c(C(F)(F)F)cnc34)[nH]2)cc1 [Example 14]', 'CDK2/CyclinE (Homo sapiens (Human))', 'pIC50', '<', 4.70),
  ('COc1ccc(-c2nnc(CNc3nc(N4CCOCC4)nc4c(C(F)(F)F)cnn34)[nH]2)cn1 [Example 15]', 'CDK2/CyclinE (Homo sapiens (Human))', 'pIC50', '=', 5.51),
  ('FC(F)(F)c1ccc(-c2cnc(CNc3nc(N4CCOCC4)nc4c(Br)cnn34)[nH]2)cc1 [Example 3]', 'CDK2/CyclinE (Homo sapiens (Human))', 'pIC50', '=', 5.10);

---

Tested on: EFM192A
Assay: Proliferation assay: cell line panel, EFM192A
Type: cell-based
Conditions: Homo sapiens, EFM-192A, 96 h, breast cancer, HER2 positive, 4 days, read-out: Result Category, IC50 (mean)
Endpoint Name: IC50

INSERT INTO measurements (record_smiles, test_target, endpoint_name, observed_result) VALUES
  ('FC(F)(F)c1ccc(-c2cnc(CNc3nc(N4CCOCC4)nn4c(C(F)(F)F)cnc34)[nH]2)cc1', 'EFM192A', 'IC50', '≥ 100 nM'),
  ('FC(F)(F)Oc1ccc(-c2cnc(CNc3nc(N4CCOCC4)nn4c(C(F)(F)F)cnc34)[nH]2)cc1', 'EFM192A', 'IC50', '≥ 100 nM');

---

System: COV318
Test: Proliferation assay: cell line panel, COV318
Type: cell-based
Details: Homo sapiens, 96 h, ovarian cancer, 4 days, read-out: Result Category, IC50 (mean)
Endpoint Name: IC50

INSERT INTO results (record_smiles, observed_result) VALUES
  ('FC(F)(F)c1ccc(-c2cnc(CNc3nc(N4CCOCC4)nn4c(C(F)(F)F)cnc34)[nH]2)cc1', '≥ 0.1 µM'),
  ('FC(F)(F)Oc1ccc(-c2cnc(CNc3nc(N4CCOCC4)nn4c(C(F)(F)F)cnc34)[nH]2)cc1', '≥ 0.1 µM');

---

Listed here: items and their measured DC50.
Target: CDK12 (Homo sapiens (Human))
Sequence (Q9NYV4 whole entry): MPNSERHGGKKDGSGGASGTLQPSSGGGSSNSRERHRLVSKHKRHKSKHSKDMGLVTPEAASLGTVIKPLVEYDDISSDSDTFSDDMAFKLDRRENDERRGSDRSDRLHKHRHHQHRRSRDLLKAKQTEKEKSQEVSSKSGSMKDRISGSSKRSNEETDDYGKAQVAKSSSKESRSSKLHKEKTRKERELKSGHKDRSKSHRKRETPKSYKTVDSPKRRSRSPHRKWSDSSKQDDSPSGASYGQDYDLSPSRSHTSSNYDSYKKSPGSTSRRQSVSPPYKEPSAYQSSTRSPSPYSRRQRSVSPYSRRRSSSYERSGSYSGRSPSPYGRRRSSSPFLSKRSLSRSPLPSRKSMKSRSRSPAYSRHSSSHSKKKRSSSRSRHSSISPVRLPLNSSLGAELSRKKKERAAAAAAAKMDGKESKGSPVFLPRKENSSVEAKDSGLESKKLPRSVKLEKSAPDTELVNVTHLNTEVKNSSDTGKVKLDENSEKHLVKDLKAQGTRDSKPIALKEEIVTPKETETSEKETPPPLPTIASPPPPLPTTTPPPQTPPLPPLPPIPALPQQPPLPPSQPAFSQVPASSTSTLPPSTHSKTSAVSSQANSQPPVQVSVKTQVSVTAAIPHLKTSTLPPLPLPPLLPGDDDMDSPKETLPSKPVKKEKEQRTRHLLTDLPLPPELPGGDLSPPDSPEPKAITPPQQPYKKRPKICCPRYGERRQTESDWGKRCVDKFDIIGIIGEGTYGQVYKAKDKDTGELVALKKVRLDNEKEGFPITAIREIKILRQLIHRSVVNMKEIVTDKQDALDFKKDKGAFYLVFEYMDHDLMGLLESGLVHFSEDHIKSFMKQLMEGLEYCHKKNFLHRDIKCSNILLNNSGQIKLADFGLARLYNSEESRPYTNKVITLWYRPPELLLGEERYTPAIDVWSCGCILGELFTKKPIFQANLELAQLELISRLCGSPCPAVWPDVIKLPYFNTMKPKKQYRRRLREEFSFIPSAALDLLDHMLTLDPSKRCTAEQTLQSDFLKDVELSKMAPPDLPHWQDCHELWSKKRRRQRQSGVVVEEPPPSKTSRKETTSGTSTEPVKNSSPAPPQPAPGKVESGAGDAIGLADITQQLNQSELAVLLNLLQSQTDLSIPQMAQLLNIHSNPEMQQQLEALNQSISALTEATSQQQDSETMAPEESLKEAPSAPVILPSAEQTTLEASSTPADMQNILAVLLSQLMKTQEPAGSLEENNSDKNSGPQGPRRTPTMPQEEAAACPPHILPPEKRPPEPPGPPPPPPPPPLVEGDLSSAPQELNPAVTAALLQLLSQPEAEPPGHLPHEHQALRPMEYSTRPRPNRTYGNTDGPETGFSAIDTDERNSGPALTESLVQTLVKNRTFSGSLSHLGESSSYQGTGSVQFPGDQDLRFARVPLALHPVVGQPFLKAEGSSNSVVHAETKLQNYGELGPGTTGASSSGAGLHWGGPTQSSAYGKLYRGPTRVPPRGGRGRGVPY
Sequence (O75909 whole entry partner): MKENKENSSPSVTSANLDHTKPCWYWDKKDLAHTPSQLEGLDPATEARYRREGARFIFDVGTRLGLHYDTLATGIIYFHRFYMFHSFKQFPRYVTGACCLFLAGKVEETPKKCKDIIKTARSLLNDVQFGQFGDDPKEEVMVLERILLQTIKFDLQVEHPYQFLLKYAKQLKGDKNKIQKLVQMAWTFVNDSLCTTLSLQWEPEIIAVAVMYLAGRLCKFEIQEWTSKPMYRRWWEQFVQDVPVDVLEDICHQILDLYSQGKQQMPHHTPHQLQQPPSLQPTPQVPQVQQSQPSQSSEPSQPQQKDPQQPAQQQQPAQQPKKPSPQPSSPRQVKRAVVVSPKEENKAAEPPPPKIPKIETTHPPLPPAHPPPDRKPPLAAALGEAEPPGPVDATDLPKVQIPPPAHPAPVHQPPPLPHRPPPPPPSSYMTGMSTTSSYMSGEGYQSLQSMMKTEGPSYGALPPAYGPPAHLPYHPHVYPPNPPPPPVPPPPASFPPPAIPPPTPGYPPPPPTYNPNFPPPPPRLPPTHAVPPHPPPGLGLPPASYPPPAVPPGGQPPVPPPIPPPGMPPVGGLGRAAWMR
Experiment: CDK12 nuclear protein level: immunofluorescence/high content analysis in CAL-120 cells
Format: cell-based
Conditions: 24 h, nuclear CDK12 staining intensity, median, read-out: CDK12 degradation IF, DC50 - [mol/l] (median)
Endpoint Name: DC50

INSERT INTO assay_data (record_smiles, observed_result) VALUES
  ('FC(F)(F)c1ccc(-c2cnc(CNc3nc(N4CCOCC4)nc4c(C(F)(F)F)cnn34)[nH]2)cc1', '0.95 µM'),
  ('FC(F)(F)Oc1ccc(-c2cnc(CNc3nc(N4CCOCC4)nc4c(C(F)(F)F)cnn34)[nH]2)cc1', '> 1 µM'),
  ('FC(F)(F)Oc1ccc(-c2nnc(CNc3nc(N4CCOCC4)nn4c(C(F)(F)F)cnc34)[nH]2)cc1', '0.665 µM'),
  ('Cc1ccc(-c2nnc(CNc3nc(N4CCOCC4)nn4c(C(F)(F)F)cnc34)[nH]2)cn1', '> 1 µM'),
  ('COc1ccc(-c2nnc(CNc3nc(N4CCOCC4)nn4c(C(F)(F)F)cnc34)[nH]2)cn1', '> 1 µM'),
  ('FC(F)(F)c1ccc(-c2nnc(CNc3nc(N4CCOCC4)nn4c(C(F)(F)F)cnc34)[nH]2)cc1', '0.92 µM'),
  ('FC(F)(F)c1ccc(-c2nnc(CNc3nc(N4CCOCC4)nn4c(C(F)(F)F)cnc34)[nH]2)cn1', '> 1 µM'),
  ('FC(F)(F)Oc1ccc(-c2nnc(CNc3nc(N4CCOCC4)nc4c(C(F)(F)F)cnn34)[nH]2)cc1', '1 µM'),
  ('FC(F)(F)Oc1ccc(-c2cnc(CNc3nc(N4CCOCC4)nn4c(C(F)(F)F)cnc34)[nH]2)cc1', '0.893 µM'),
  ('FC(F)(F)c1ccc(-c2nnc(CNc3nc(N4CCOCC4)nc4c(C(F)(F)F)cnn34)[nH]2)cc1', '1 µM'),
  ('Cc1ccc(-c2nnc(CNc3nc(N4CCOCC4)nc4c(C(F)(F)F)cnn34)[nH]2)cn1', '> 1 µM'),
  ('FC(F)(F)Oc1ccc(-c2cnc(CNc3nc(N4CCOCC4)nc4c(Br)cnn34)[nH]2)cc1', '> 1 µM'),
  ('FC(F)(F)c1ccc(-c2cnc(CNc3nc(N4CCOCC4)nc4c(C(F)(F)F)cnn34)[nH]2)cn1', '> 1 µM'),
  ('COc1ccc(-c2nnc(CNc3nc(N4CCOCC4)nc4c(C(F)(F)F)cnn34)[nH]2)cn1', '> 1 µM'),
  ('FC(F)(F)c1ccc(-c2cnc(CNc3nc(N4CCOCC4)nc4c(Br)cnn34)[nH]2)cc1', '> 2.88 µM'),
  ('FC(F)(F)Oc1ccc(-c2nnc(CNc3nc(N4CCOCC4)nc4c(C(F)(F)F)cnn34)[nH]2)cn1', '> 1 µM'),
  ('FC(F)(F)c1ccc(-c2nnc(CNc3nc(N4CCOCC4)nc4c(Br)cnn34)[nH]2)cc1', '2.38 µM'),
  ('FC(F)(F)c1ccc(-c2nnc(CNc3nc(N4CCOCC4)nc4c(C(F)(F)F)cnn34)[nH]2)cn1', '> 1 µM'),
  ('FC(F)(F)c1ccc(-c2cnc(CNc3nc(N4CCOCC4)nn4c(C(F)(F)F)cnc34)[nH]2)cc1', '0.671 µM'),
  ('FC(F)(F)c1ccc(-c2cnc(CNc3nc(N4CCOCC4)nn4c(C(F)(F)F)cnc34)[nH]2)cn1', '> 1 µM'),
  ('FC(F)(F)Oc1ccc(-c2nnc(CNc3nc(N4CCOCC4)nc4c(Br)cnn34)[nH]2)cc1', '> 2.79 µM'),
  ('COc1ccc(-c2cnc(CNc3nc(N4CCOCC4)nn4c(C(F)(F)F)cnc34)[nH]2)cc1', '0.12 µM'),
  ('COc1ccc(-c2cnc(CNc3nc(N4CCOCC4)nc4c(C(F)(F)F)cnn34)[nH]2)cn1', '> 1 µM');

---

Tested on: HCC1143
Test: Proliferation assay: cell line panel, HCC1143
Type: cell-based
Settings: Homo sapiens, 96 h, breast cancer, triple-negative, 4 days, read-out: Result Category, IC50 (mean)
pIC50: −log10 of the molar value.
Endpoint Name: pIC50

INSERT INTO measurements (record_smiles, observed_result) VALUES
  ('FC(F)(F)Oc1ccc(-c2cnc(CNc3nc(N4CCOCC4)nn4c(C(F)(F)F)cnc34)[nH]2)cc1', '≤ 7.00'),
  ('FC(F)(F)c1ccc(-c2cnc(CNc3nc(N4CCOCC4)nn4c(C(F)(F)F)cnc34)[nH]2)cc1', '≤ 7.00');
